- target_of_assay: DNA topoisomerase 2-alpha (Homo sapiens) (UniProt P11388)
- Sequence (P11388 whole entry): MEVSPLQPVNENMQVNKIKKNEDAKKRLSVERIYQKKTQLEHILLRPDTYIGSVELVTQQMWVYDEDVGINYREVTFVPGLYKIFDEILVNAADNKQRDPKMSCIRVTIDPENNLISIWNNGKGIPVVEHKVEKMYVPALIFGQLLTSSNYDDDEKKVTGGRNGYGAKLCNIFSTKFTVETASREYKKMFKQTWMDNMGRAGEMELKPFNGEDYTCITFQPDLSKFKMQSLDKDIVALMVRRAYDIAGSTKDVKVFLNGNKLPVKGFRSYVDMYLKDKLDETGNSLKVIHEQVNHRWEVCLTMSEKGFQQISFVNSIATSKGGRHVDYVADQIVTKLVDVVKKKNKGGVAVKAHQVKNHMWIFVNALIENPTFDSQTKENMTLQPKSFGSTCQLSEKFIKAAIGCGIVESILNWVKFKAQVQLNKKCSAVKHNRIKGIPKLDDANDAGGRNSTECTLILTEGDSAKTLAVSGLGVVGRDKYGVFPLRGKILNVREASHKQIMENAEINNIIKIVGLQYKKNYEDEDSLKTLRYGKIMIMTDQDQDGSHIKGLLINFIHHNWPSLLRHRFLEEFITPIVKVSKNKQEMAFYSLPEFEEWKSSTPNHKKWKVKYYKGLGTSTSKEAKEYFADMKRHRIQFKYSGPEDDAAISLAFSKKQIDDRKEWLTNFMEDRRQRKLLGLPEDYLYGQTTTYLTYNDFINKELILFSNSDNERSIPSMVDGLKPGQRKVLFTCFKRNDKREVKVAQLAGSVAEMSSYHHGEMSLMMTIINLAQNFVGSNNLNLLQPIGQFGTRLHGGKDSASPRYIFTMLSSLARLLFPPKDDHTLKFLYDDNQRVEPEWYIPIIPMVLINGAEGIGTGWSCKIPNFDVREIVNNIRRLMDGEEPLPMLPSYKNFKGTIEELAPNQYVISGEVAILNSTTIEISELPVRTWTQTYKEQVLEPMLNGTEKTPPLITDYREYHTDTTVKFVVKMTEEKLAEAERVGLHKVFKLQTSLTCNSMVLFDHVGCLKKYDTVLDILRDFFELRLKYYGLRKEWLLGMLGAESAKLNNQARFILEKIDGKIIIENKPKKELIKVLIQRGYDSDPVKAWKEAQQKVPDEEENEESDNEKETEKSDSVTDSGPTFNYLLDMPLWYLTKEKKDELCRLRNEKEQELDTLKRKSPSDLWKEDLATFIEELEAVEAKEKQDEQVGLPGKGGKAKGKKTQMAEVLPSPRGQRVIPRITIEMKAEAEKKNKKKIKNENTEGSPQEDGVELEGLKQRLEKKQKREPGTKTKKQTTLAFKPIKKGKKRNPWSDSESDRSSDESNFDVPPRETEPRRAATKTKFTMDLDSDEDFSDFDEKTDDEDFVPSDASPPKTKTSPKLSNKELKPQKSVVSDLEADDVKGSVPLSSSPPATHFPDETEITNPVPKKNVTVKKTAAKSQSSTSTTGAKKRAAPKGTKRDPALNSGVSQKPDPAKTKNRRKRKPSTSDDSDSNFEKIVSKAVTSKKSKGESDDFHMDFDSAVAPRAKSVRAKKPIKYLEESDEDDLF
- measurement_protocol: Inhibition of recombinant human topoisomerase 2alpha assessed as decrease in relaxation of supercoiled pBR322 DNA at 100 uM after 30 mins by agarose gel electrophoresis relative to etoposide
result_type: fold change (FC)
Answers are plain numbers.

[
  {
    "query_smiles": "Oc1ccc(-c2cc(-c3ccccc3Cl)nc3c2oc2ccccc23)cc1",
    "recorded_number": 1.07
  },
  {
    "query_smiles": "Oc1ccccc1-c1cc(-c2ccc(Cl)cc2)nc2c1oc1ccccc12",
    "recorded_number": 0.99
  },
  {
    "query_smiles": "Oc1cccc(-c2cc(-c3ccc(Cl)cc3)nc3c2oc2ccccc23)c1",
    "recorded_number": 1.01
  }
]

# batch: return fold change (FC) for each of the 4 compounds below
1. Oc1ccc(-c2cc(-c3ccc(Cl)cc3)nc3c2oc2ccccc23)cc1
2. Oc1cccc(-c2cc(-c3ccccc3Cl)nc3c2COc2ccccc2-3)c1
3. Oc1cccc(-c2cc(-c3cccc(Cl)c3)nc3c2oc2ccccc23)c1
4. Oc1ccc(-c2cc(-c3cccc(Cl)c3)nc3c2oc2ccccc23)cc1

Response:
1.15
1.37
0.98
1.01

For each listed entry, give its fold change (FC).
1. Oc1ccc(-c2cc(-c3ccc(Cl)cc3)nc3c2COc2ccccc2-3)cc1
2. Oc1ccccc1-c1cc(-c2ccccc2Cl)nc2c1COc1ccccc1-2
3. Oc1ccccc1-c1cc(-c2ccc(Cl)cc2)nc2c1COc1ccccc1-2
4. Oc1ccccc1-c1cc(-c2cccc(Cl)c2)nc2c1COc1ccccc1-2
5. Oc1ccc(-c2cc(-c3ccccc3Cl)nc3c2COc2ccccc2-3)cc1
6. Oc1ccccc1-c1cc(-c2cccc(Cl)c2)nc2c1oc1ccccc12
7. Oc1ccccc1-c1cc(-c2ccccc2Cl)nc2c1oc1ccccc12

Response:
[1.32, 1.19, 1.34, 1.13, 1.24, 0.97, 0.98]
